- Tested on: BT-474
- experiment-description: normalised viability (% of control), CellTiter-Blue; higher = more viable cells (about 100 = DMSO control)
- condition-info: 1000 nM; incubation time: 72 h
endpoint-label: normalised viability (%)
Give the quantity in %, number only.

# lookup: normalised viability of C=C1C[C@@H]2[C@H](CC[C@]3(C)C(=O)CC[C@@H]23)[C@@]2(C)C=CC(=O)C=C12 [Exemestane] 93.7

I have this molecule here, Nc1cc(C(F)(F)F)c(-c2cc(N3CCOCC3)nc(N3CCOCC3)n2)cn1 [BKM-120] , and I need its recorded normalised viability. 64.3

For COCC[n+]1c2c(n(Cc3cnccn3)c1C)C(=O)c1ccccc1C2=O [YM155] , what is its reported normalised viability? 0.63

Field request: normalised viability | item: CC(C)C[C@@H](C(=O)N[C@H](C(=O)OC1CCCC1)c1ccccc1)[C@H](O)C(=O)NO [Tosedostat] 101

Bench note: what normalised viability did Cc1[nH]c2ccccc2c1CCNCc1ccc(/C=C/C(=O)NO)cc1 [Panobinostat] show? 9.36

Could you share which normalised viability value was measured for CN(C)c1nc(N(C)C)nc(N(C)C)n1 [Altretamine] ? 134

---

- Tested on: HCC1937
- condition-info: 72 h
endpoint-label: EC50, CellTiter-Blue viability (nM)
Write the value in nM as a bare number.

Give the measured EC50, CellTiter-Blue viability of Cc1[nH]c2ccccc2c1CCNCc1ccc(/C=C/C(=O)NO)cc1 [Panobinostat] . 14.6

Reported EC50, CellTiter-Blue viability for COCC[n+]1c2c(n(Cc3cnccn3)c1C)C(=O)c1ccccc1C2=O [YM155] : what is it? 4.46

Consider the compound shown here: CO[C@H]1C[C@@H]2CC[C@@H](C)[C@@](O)(O2)C(=O)C(=O)N2CCCC[C@H]2C(=O)O[C@H]([C@H](C)C[C@@H]2CC[C@@H](OP(C)(C)=O)[C@H](OC)C2)CC(=O)[C@H](C)/C=C(\C)[C@@H](O)[C@@H](OC)C(=O)[C@H](C)C[C@H](C)/C=C/C=C/C=C/1C [Ridaforolimus] What is its recorded EC50, CellTiter-Blue viability? 1.12

What value of EC50, CellTiter-Blue viability has been recorded for this entry: Cc1cc(Nc2cc(CN3CCOCC3)c3nc(C)c(Cc4ccc(Cl)cc4F)n3n2)n[nH]1 3820

Form field: reported EC50, CellTiter-Blue viability of N#Cc1ccc(COC[C@H]2O[C@@H](n3c(NCc4ccc(Cl)c(Cl)c4)nc4c(N)ncnc43)[C@H](O)[C@@H]2O)cc1 619

---

- System: SK-BR-3
- experiment-description: normalised response (% of control), CellTiter-Glo; higher = more viable cells (100 = DMSO, 0 = benzethonium chloride kill control)
- condition-info: incubation time: 72 h
For each entry below, report its normalised response value.
Express the result in % but write the number alone.

Need normalised response of c1ccc2c(CCNc3ccc(Nc4ccncc4)cc3)c[nH]c2c1 [Serdemetan] (1 nM) , thanks. 104

For COc1cc2ncnc(Nc3ccc(F)c(Cl)c3)c2cc1OCCCN1CCOCC1 [Gefitinib] (1000 nM) , what is its reported normalised response? 51.9

Could you share which normalised response value was measured for O=C(/C=C/c1cccc(S(=O)(=O)Nc2ccccc2)c1)NO [Belinostat] (1000 nM) ? 15.7

Given the compound CN(C)CCOc1ccc(/C(=C(/CCCl)c2ccccc2)c2ccccc2)cc1 [Toremifene] (1000 nM) , what is its reported normalised response? 106

Name the recorded normalised response for CNC(=O)c1ccc(N2C(=S)N(c3ccc(C#N)c(C(F)(F)F)c3)C(=O)C23CCC3)cc1F [RD162] (1 nM) . 107

For the compound shown here, COc1cc2c(NC3CCN(C(C)C)CC3)nc(N3CCC(F)(F)CC3)nc2cc1OCCCN1CCCC1 [UNC0642] (1000 nM) , give the reported normalised response. 96.4

So what does the record say about normalised response for c1ccc2c(CCNc3ccc(Nc4ccncc4)cc3)c[nH]c2c1 [Serdemetan] (10 nM) ? 94.3

Entry CO[C@H]1C[C@@H]2CC[C@@H](C)[C@@](O)(O2)C(=O)C(=O)N2CCCC[C@H]2C(=O)O[C@H]([C@H](C)C[C@@H]2CC[C@@H](OP(C)(C)=O)[C@H](OC)C2)CC(=O)[C@H](C)/C=C(\C)[C@@H](O)[C@@H](OC)C(=O)[C@H](C)C[C@H](C)/C=C/C=C/C=C/1C [Ridaforolimus] (0.01 nM) : reported normalised response = ? 111

---

Give measured normalised response for each item. Keep answers brief.
- System: HCC1143
- experiment-description: normalised response (% of control), CellTiter-Glo; higher = more viable cells (100 = DMSO, 0 = benzethonium chloride kill control)
- condition-info: incubation time: 72 h
State just the number; it will be interpreted in %.

// query normalised response value for entry CNC(=O)c1cc(Oc2ccc(NC(=O)Nc3ccc(Cl)c(C(F)(F)F)c3)c(F)c2)ccn1 [Regorafenib] (10000 nM) 77.8

Bench note: what normalised response did Nc1cc(C(F)(F)F)c(-c2cc(N3CCOCC3)nc(N3CCOCC3)n2)cn1 [Buparlisib] (10000 nM) show? 57.4

Query (molecule): CCOC(=O)CCNc1cc(N2CCc3ccccc3CC2)nc(-c2ccccn2)n1 [GSK-J4] (100000 nM) ; field requested: normalised response -0.1

Give the measured normalised response of NC(=O)c1ccc(I)c([N+](=O)[O-])c1 [Iniparib] (10000 nM) . 92.1

---

Provide the recorded normalised response for the entries that follow.
- Tested on: CAL-120
- experiment-description: normalised response (% of control), CellTiter-Glo; higher = more viable cells (100 = DMSO, 0 = benzethonium chloride kill control)
- condition-info: incubation time: 72 h
The reply should contain only the number, in %.

Sample COc1cc(OC2CCN(C)CC2)ccc1Nc1ncc2c(n1)n(C1CCCC1)c(=O)n2C [AZ 3146] (10000 nM) — what was its normalised response? 81

Which normalised response value is on record for O=C(Nc1ccncc1)C(=O)c1cn(Cc2ccc(Cl)cc2)c2ccccc12 [Indibulin] (10000 nM) ? 60.7

Sample CC(C)C[C@@H](C(=O)N[C@H](C(=O)OC1CCCC1)c1ccccc1)[C@H](O)C(=O)NO [Tosedostat] (10000 nM) — what was its normalised response? 47.9

Quick one: normalised response for O=C(Nc1cccnc1)N1CCC(Cc2cccc(Oc3ccc(C(F)(F)F)cn3)c2)CC1 [PF-3845] (10000 nM) ? 86

Could you tell me which normalised response is on file for COc1cc2ncnc(Nc3ccc(F)c(Cl)c3)c2cc1OCCCN1CCOCC1 [Gefitinib] (10000 nM) ? 83.6

---

- Tested on: HCC1937
- experiment-description: normalised response (% of control), CellTiter-Glo; higher = more viable cells (100 = DMSO, 0 = benzethonium chloride kill control)
- condition-info: incubation time: 72 h
endpoint-label: normalised response (%)
Could you give me the number in %? Just the number is fine.

Field request: normalised response | item: CCOC(=O)CCNc1cc(N2CCc3ccccc3CC2)nc(-c2ccccn2)n1 [GSK-J4] (100 nM) 95.2

Fill blank: measured normalised response of the compound CN(C)CCOc1ccc(/C(=C(/CCCl)c2ccccc2)c2ccccc2)cc1 [Toremifene] (1 nM) is ____. 96.2

Bench note: what normalised response did CNC(=O)c1cccc(-c2ccc3c(N4CCOC[C@@H]4C)nc(N4CCOC[C@@H]4C)nc3n2)c1 [AZD2014] (1000 nM) show? 56.7

// normalised response lookup, key: N#Cc1ccc(COC[C@H]2O[C@@H](n3c(NCc4ccc(Cl)c(Cl)c4)nc4c(N)ncnc43)[C@H](O)[C@@H]2O)cc1 (1 nM) 103

Using the record for O=C(/C=C/c1cccc(S(=O)(=O)Nc2ccccc2)c1)NO [Belinostat] (1000 nM) , report its normalised response. 69.9

May I ask what normalised response has been recorded for O=C(/C=C/c1cccc(S(=O)(=O)Nc2ccccc2)c1)NO [Belinostat] (1 nM) ? 96.5

Would you kindly share the measured normalised response for COc1cc(O)c2c(c1)/C=C/C[C@H](O)[C@H](O)C(=O)/C=C\C[C@H](C)OC2=O [(5Z)-7-Oxozeaenol] (1000 nM) ? 76.1

Which normalised response reading was recorded for the compound O=C(Nc1ccncc1)C(=O)c1cn(Cc2ccc(Cl)cc2)c2ccccc12 [Indibulin] (10 nM) ? 98.2

Report normalised response for CN(C)c1nc(N(C)C)nc(N(C)C)n1 [Altretamine] (1000 nM) please. 99.4

Bench note: what normalised response did CN(C)CCOc1ccc(/C(=C(/CCCl)c2ccccc2)c2ccccc2)cc1 [Toremifene] (10 nM) show? 98.6

Param item = CCc1c2c(nc3ccc(OC(=O)N4CCC(N5CCCCC5)CC4)cc13)-c1cc3c(c(=O)n1C2)COC(=O)[C@]3(O)CC [Irinotecan] (10 nM) ; retrieve measured normalised response. 94.8

Tell me the measured normalised response of NC(=O)c1ccc(I)c([N+](=O)[O-])c1 [Iniparib] (1000 nM) , please. 97.7

# input compound: COc1cc2ncnc(Nc3ccc(F)c(Cl)c3)c2cc1OCCCN1CCOCC1 [Gefitinib] (1000 nM) ; wanted: its normalised response 87.9

Item CNC(=O)c1ccc(N2C(=S)N(c3ccc(C#N)c(C(F)(F)F)c3)C(=O)C2(C)C)cc1F [Enzalutamide] (1000 nM) has what recorded normalised response? 96.8

Looking for the measured normalised response of CNC(=O)c1ccc(N2C(=S)N(c3ccc(C#N)c(C(F)(F)F)c3)C(=O)C23CCC3)cc1F [RD162] (10 nM) , can you help? 97

Record request: normalised response value, item COc1cc(OC2CCN(C)CC2)ccc1Nc1ncc2c(n1)n(C1CCCC1)c(=O)n2C [AZ 3146] (1000 nM) 97.2
